target: T1, human survivin (human, UniProt O15392 1-142, GREEN-MALEIMIDE (cysteine reactive) fluorescent label, in the MST experiments only); test: MST; labelled survivin held constant, serial dilution of the peptide; Buffer B (50 mM Tris pH 7.4, 150 mM NaCl, 10 mM MgCl2, 0.05% Tween-20, 1 mM DTT); 5 min incubation; 24 °C; T-jump + thermophoresis; three dilution series; settings: both partners purified
T1 construct: survivin, human, 16 kDa; The His tag is detected on the array by a 6X His Tag antibody; for the MST no cleavage of the tag is told; On the array the protein was unlabelled, in the MST labelled on cysteine; source: E. coli BL21(DE3) star, purified (Ni2+ chelation chromatography, gel filtration)
T1 sequence (O15392 whole entry): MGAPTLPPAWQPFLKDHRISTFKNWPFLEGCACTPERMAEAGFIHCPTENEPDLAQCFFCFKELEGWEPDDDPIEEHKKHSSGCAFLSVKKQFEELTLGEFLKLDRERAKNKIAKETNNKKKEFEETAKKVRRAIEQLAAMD
endpoint_name: pKd
One number for each entry, as −log10 of the molar value.

For record KREEKRKANRRKSKRMSKYKEN (human Shugoshin-like 1 (hSgol1), residues 291-312, with the KEN motif; also called hSgol1 peptide; source: synthetic peptide (Genscript)) [hSgol1^291–312 peptide] the listed pKd is 4.09
